B1: MFF (parent)
chain: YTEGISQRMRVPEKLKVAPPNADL

Variants of: B1
procedureSummary: protein stability index of a GFP-peptide fusion (GPS, HEK-293T) (PSI 1-6); higher = more stable;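 further: lentivirally expressed fusions sorted by FACS into six bins by GFP to DsRed ratio, PSI derived from sequencing read proportions per bin multiplied by bin number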
conditionParameters: c terminus: a fixed tail appended
readoutType: protein stability index
Answer using only a numeral; do not append any unit.

Data request, read-out protein stability index, for M9N 2.96

Data request, read-out protein stability index, for N21K 2.99

Data request, read-out protein stability index, for P12A 3.06
